Kindly supply the reported protease stability score values for the records listed here.
Protocol notes: protease stability score; higher = more stable; yeast display proteolysis, trypsin and chymotrypsin;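 further: relative to predicted unfolded state with 0 unfolded-like and 1 meaning tenfold more protease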
Give bare numbers.

# annotated cases, reported protease stability score shown
{"Primary sequence": "SEIQDISDLAFELIWRSLNTGDEHMLLELLDPDARTHVNGKTFHGRESAVHLFRYLLTLMGIDHIHIEDFKIEFQGDKVIIRMTTRSHQGDKEFHTRFLIIVRKVDGRWINEEISIHVE", "Observed": 0.937}
{"Primary sequence": "DEDEEKVEHISKEYFRSFVTGDEDKLRKLLDPNARVYFNGQTVIGRELATKIVLELRNRQVEVDHLHIEYQGDKARLHQITTIDGHINGRDEWFEFHIEVHLRKVNGKWVIQRSEFEIR", "Observed": 0.252}

Please examine the following record next.
Bench note: what protease stability score did `DEEEQHAERVTRRWSRAVLTGNEEELSRLMDPHVRVHINGRDLHGREVAVEQRREQHKELGIDHIEVRLRHLRIQGDKLEVDSRVIIRVNGQEITIDTLLIWRKIDGRWVLHSVHEH` show?
0.348

###

Protocol notes: protease stability score; higher = more stable; yeast display proteolysis, trypsin and chymotrypsin;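 further: relative to predicted unfolded state with 0 unfolded-like and 1 meaning tenfold more protease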
Parameter measured: protease stability score

{"Primary sequence": "SEEDELAMEFMREQDRNQETGDWRRLSELADPNTRVEVNGREIHGMELWIKLLINKLREHGMEVRLHVERVEFYDGVADLDLRLYIHINGKDIHFHTQIIILKINGKWILKYIIIR", "protease stability score": 1.25}
{"Primary sequence": "SEEHHSEKLAIHLSKEISHTGDETWIKKMLDPNVKIVIGDKEFHGMENFVTHWHRLVKELGVDRVRHRVEDSDVQGDKLTMHVEIEVNGRKVESHIIAHKFNGRWLVKEIIFH", "protease stability score": 1.23}
{"Primary sequence": "DEEDEDAHYALKLLLKMVHTGNEEDMQRYLDPNVRVEQGDYHYHGREASEIIKNRFKNVKVKVDHYEIQGEYVNLKVTIDVNGKHKQSTIIVHKFDGRWLIEKIIII", "protease stability score": 2.48}
{"Primary sequence": "SEEERDARIAIEIMLRLLHTGDEESMHQLADPDVRSDVGDKELHGWKLFVDVITEMGIDHVELEHLHTQGDKVHIHVRSFFNGREYLVNLHVRKVDGKWYVEEMKISHH", "protease stability score": 2.45}
{"Primary sequence": "DEEQEIMEHILEELLRIDWTGDEHVLERLLDPNMQLEFNGVRLVGMEEVQRWLRRFLTEIRIHDFKVHDFHSFNGRLHSDVEVDFQVNGQRHITRVRLNLEVINGVVHRVEVRHE", "protease stability score": 2.17}

Now for the sequence whose protease stability score we want.
Recorded protease stability score of `SEEEEEFRRAVEFIERTIQTGDERILRELADPHVRLEIGDKHDHGRERVVEIWVSIFEKFKNARWEIRDVKVIDGKIYIDGSLIIDGKEHQTLIVSEKVNGRWHLKSIHIH` , please.
2.17

###

Assign protease stability score to each entry below.
Protocol notes: protease stability score; higher = more stable; yeast display proteolysis, trypsin and chymotrypsin;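 further: relative to predicted unfolded state with 0 unfolded-like and 1 meaning tenfold more protease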
Answers are plain numbers.

# count of solved cases: 3
{"Primary sequence": "DEIEEEVRKFAEIHSRDLMTGNFESFREQADPHVRVIINGREFHGWHFLFHWLQEMRIHRVRIEDVRVYGDKAILDTRVESHVDGRTFDLEFKLVLSKVDGRWRVHQIILR", "protease stability score": 1.11}
{"Primary sequence": "SEDEHSFKMAIDLWEEVSRTGDEKDLRELIDPHVRVEYGDKHHVGWDRFIKVFHEIRFHHIKVRDHRIIGDKLHMNIEVHGEYNGQRVTIETHVVMRKIDGRWFTETMQID", "protease stability score": 1.22}
{"Primary sequence": "HEEEKLNHLWYEIVVHLLLTGNWKEIKKNADPHARSDINGVEYHGREEVSEVLHHVMKKMGAKVFREKEHDHQGEYMHIHFEIRVGDKLVESTLISLKVDGRWIHHEYREK", "protease stability score": 1.37}

For every item below, please supply its protease stability score.
1. DEKDEFNHKIAHQFSESLHTGDFKLLESLFDPNVRSDINGREIIGMEELVHFWEEWKRKFPNAKERYRTESIEHQGEKTISNMRVDLHQGDFHLHREWRVEIHIIDGVVKEVRIENR
2. HETEKLTKEYIREELEVLKTGDEKETRELLDPDVRIEQGEFSTHGWDYATHWLRTFTERVKGAQFEKKTIRVINGRVNIHMLMHFNGREERIDLISVKIDGRWLIKSVHIHIE
3. SEEEEYALKVLEDILKAFLTGDWKITEHLLDPDARLEINGRNFVGRELIRKYLEEYLRRIDVVRIKIRHVEVQGDKNHLEGELIEIQGDKHKSMDMKIHLVIINGRVRREHVRVE
4. EEDLEHILELSEYFIRAWSTGDWDTIHKYADPHVRSDINGVESHGMEEMIRVYEEIRVTIEHVHYDHVTVQGEKLIVDGRMDYRVDINGKKKEHRTRVEIHVDVVNGRIKSFVINYR
5. DEEEEYAHRFVEDFIDAWLTGDEDRLEELMDPNVKIVVGDKVLVGRHLVIRLMHEWIRKYKGIKFVFHVKHLEAINGRLEIESEVDLRINGRKIKHTSKMVVRKIDGKWEIREFHLN
6. HEDEHLSRRFAELVLTYLETGDEDSILEMADPHVRTELIIGDKTFRYIGRENLERWLHEVLRKFKNLRFVPKRLHIQGDKVIMRGYVIFDGRTHETEMIWIVINGRIHAVLHHEH

[1.23, 0.208, 2.15, 1.23, 2.38, 1.81]

Return reported protease stability score values for all items listed beneath this line.
1. SEEEHELKHWMKLFKHMIETGDWDSLVHYLDPHTRMHVGEFHHHGRHLMLKAFHDFLREMGAKHSDHKDSEITIQGDKVELTLDTRSQVGDKEFNVRIININRKVNGRWIIHSIIIEVE
2. SETEETVRRFFELLMKLEHTGNEEAIEKLFDPNMKWHQGEKERHGRETFSRMVSELRIHDFRLHRIEIYGDKAIIEGSVDGNFNGQRSEVEVTIHLEKIDGRWFIHSIHLS
3. DEDHEELHHWSRLTLESIKTGNEDELHKFADPNVRFKVNGKDIHGMESFVRFMLEFIDRYPNLVLEEKHFHVVNGRMIQIIRVRVGDKTSEIFLIAHKVDGRWHLEHMEIR

1: 1.09; 2: 1.15; 3: 1.08

Can you give me protease stability score for all of these, one by one?
1. SEQSKHVKDMFDTWVHSERTGDWRVAKELVDPNARIDINGREFHGMEEAERLAHEIFTRIDHKELRIDHVHFINGVFKVEGTVIFRQGDKQFTIETRIHLFVINGRLKELKVEFI
2. SEYEDLIKTALHLWHEIFLTGNEDVLHRLIDPHVRVTFNGVRNHGRDYLLHHIEELGMEHHNFDISHVDMQGDKIILYTFLHAHVNGRTTSFQLHIFWIKVNGRWIVKRVEIR
3. NEWKEKFERFTRLLLTALMTGNEELLTKMVDPHVKVDIIINGQHIEHHGMERVIEMLTQLRVDRWRIKHIDIQGDKLHVNIHLDIKYDGRREETRTEIRLIIYDGVVHEIEIHLH
4. DETEEVMERVIQMLAHATHTGDWKDIRRLMDPNVKININGREIIGREELIRYLRELRETYHHFELKHVEVQGDKIIVHGRTLIRIEIGDKEIHLDSDVRYILWKVDGRWIMESIHIV
5. DEESRLIEEFIKKVTHALRTGDEHRMHHLLDPHVRFYIGDKFLIGRENMAHLIRWLIEHLGVDHTHLESSSIINGKSFLDTRMHVDGQEIEVRFIIVLFDGVVNRVHYQIE
6. DSDEEATKDFLEILIKLEMTGNEEEMRKMLDPNVRLIIDGVNLHGREALNVYLERFKNIQVEEIRIRHIEFQGEKVKIDYEWTVRINGRHHHQRTTIILIKYDGRWIIHMIHWH
7. SEDEKMANEMLEIMMRNLITGNWEELSRLADPHVRIVINGVELHGRETINNYLHHLRIKRVHLNVTHIESIDGKVKSIGLLREHGEFNGKETETHTKVILIIQKVNGVWIVKEIRDE
8. DEHEEAFREFLRLLLESLRTGDEHTLKRLIDPHARIDIDGQEFVGMEHLEHILKNMIKHIRYEDIEIEHFEFINGQVRFKTRYHGRINGKRDTLHIHIIITKINGKWVLEQLEFR

[1.15, 0.759, 1.99, 2.18, 1.1, 2.55, 1.4, 2.15]

Quick one: give me protease stability score for each item below, same order please.
1. HEHEEELHRVFKIFLELWTTGDEESMERLLDPNARWVELQGDKELTLIGRENARNRFKEIFDLAGFKYMHLDHEDIQGEKTRFEMTVEYDGRRTRMLLKIVVINGRVKVVKLEER
2. DEQEEHVEKLVHLLLRRFKTGDEEFWRRLADPRTRLHVGDKHHHGRETFMKVFRHLIEDLGIDHRIEKHFEVINGVLHIHQIIVVDGQEFELRIHVFVVDGKVKSIDVSIHTR

1.32
0.896
